molecular target: Prothrombin (Homo sapiens, UniProt P00734)
pKi values for the molecules below.
Convention used: pKi is expressed as -log10 of the molar concentration.

Example molecules with recorded pKi:
> print(dat)
                              smiles.string  endpoint.value
1  Cc1nc(N)ccc1CNC(=O)Cc1c(Cl)ccc(NCC(F)(F)c2ccc(Cl)cn2)c1F            9.15
2  N=C(N)NOCCNC(=O)Cc1c(Cl)ccc(NCC(F)(F)c2cccc3cccnc23)c1F            8.57

Alright, here's another molecule for you.
-- ask Report pKi under test system Prothrombin (Homo sapiens, UniProt P00734) for N=C(N)NOCCNC(=O)Cc1c(Cl)ccc(NCC2(c3cccnc3)CC2)c1F .
-- reply 6.85

* * *

pKi values for the compounds below.
molecular target: UniProt P00734; experiment: Inhibition of human thrombin after 15 mins by standard chromogenic assay
Convention used: pKi is expressed as -log10 of the molar concentration.

Example compounds with recorded pKi:
> print(dat)
                              smiles.string  target.or.system  endpoint.value
1  NC(N)=NOCCNC(=O)Cc1c(Cl)ccc(NCC(F)(F)c2cccc3cnccc23)c1F    UniProt P00734            8.33
2  N=C(N)NOCCNC(=O)Cc1c(Cl)ccc(NCC2(c3ccccn3)CC2)c1F    UniProt P00734            7.24
3  N=C(N)NOCCNC(=O)Cc1c(Cl)ccc(NCC(F)(F)c2cnc3ccccc3c2)c1F    UniProt P00734            6.77

Alright, here's another compound for you.
-- ask Report pKi under test system UniProt P00734 for Cc1nc(N)ccc1CNC(=O)Cc1c(Cl)ccc(NCC(F)(F)c2ccc(Cl)c[n+]2[O-])c1F .
-- reply 9.05
